B1: glmS ribozyme (parent)
chain: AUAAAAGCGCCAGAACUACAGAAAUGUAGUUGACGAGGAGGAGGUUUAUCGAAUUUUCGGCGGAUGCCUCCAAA

- Variants of: B1
- assay_method_text: KM; higher = weaker cofactor use; RNA array
- reported_conditions: with glucosamine-6-phosphate
Kindly note that classification relies on KM with these boundaries: low group = under 1000 µM, middle group = from 1000 µM up to 2000 µM, high group = 2000 µM and over

- variant_key: "A14U G35A"
  assigned_category: "low group"
- variant_key: "G32U C67G"
  assigned_category: "middle group"
- variant_key: "A12U G41A"
  assigned_category: "low group"
- variant_key: "A12G C67U"
  assigned_category: "high group"
- variant_key: "C16U C71A"
  assigned_category: "low group"
- variant_key: "A12C U46C"
  assigned_category: "middle group"
- variant_key: "G29U G32A"
  assigned_category: "high group"
- variant_key: "A14U U45A"
  assigned_category: "middle group"
- variant_key: "U56G G60A"
  assigned_category: "low group"
- variant_key: "G44C U54G"
  assigned_category: "middle group"
- variant_key: "G13A G32A"
  assigned_category: "high group"
- variant_key: "A15C A33C"
  assigned_category: "middle group"
- variant_key: "A15C C68U"
  assigned_category: "high group"
- variant_key: "A14U A53U"
  assigned_category: "high group"
- variant_key: "A12G U65G"
  assigned_category: "high group"
- variant_key: "U55A C61U"
  assigned_category: "middle group"
- variant_key: "A42U U55A"
  assigned_category: "middle group"
- variant_key: "G44U U46C"
  assigned_category: "high group"
- variant_key: "U31C G40U"
  assigned_category: "high group"
- variant_key: "C11A C68U"
  assigned_category: "low group"
- variant_key: "A6G U55G"
  assigned_category: "high group"
